Attribution: the supplement of paper PMC7877785

# Method summary: self-splicing fitness, log relative to wild type (ln ratio); higher = more splicing; Tetrahymena group I intron in knt gene, E. coli kanamycin selection, DiMSum; sequences stand for … in CUCUCU…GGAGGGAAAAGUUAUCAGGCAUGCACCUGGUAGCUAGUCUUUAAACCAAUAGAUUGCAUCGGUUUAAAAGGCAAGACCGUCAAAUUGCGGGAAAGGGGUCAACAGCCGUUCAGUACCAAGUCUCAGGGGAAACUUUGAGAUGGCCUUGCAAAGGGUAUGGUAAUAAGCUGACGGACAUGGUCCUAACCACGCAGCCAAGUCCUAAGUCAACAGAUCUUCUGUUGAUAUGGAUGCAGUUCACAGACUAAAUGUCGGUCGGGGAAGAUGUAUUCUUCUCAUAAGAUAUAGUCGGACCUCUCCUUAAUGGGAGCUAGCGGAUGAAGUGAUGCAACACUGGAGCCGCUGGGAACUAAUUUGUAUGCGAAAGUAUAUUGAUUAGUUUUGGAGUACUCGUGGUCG;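 also: selection with 25 µg/mL kanamycin versus none on LB agar overnight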
# Condition info: 37 °C
Recorded metric: self-splicing fitness (ln)
Answer with a bare number; do not write a unit.

So, GACUAGCAAUAUUACGGAGG ? Its self-splicing fitness (ln) was -1.68

So, UCGCAGCAAUAUUACGUUGG ? Its self-splicing fitness (ln) was -2.12

So, CACAAGCAAUAUUACGCACG ? Its self-splicing fitness (ln) was -0.684

So, AAACAGCAAUAUUACGUCGU ? Its self-splicing fitness (ln) was -0.661

So, GACUAGCAAUAUUACGAGUC ? Its self-splicing fitness (ln) was -2.36

So, UUCGAGCAAUAUUACGUAAU ? Its self-splicing fitness (ln) was -1.9

So, UACAAGCAAUAUUACGAUGC ? Its self-splicing fitness (ln) was -3.13

So, GAGAAGCAAUAUUACGUUAC ? Its self-splicing fitness (ln) was -3.05

So, AUGGAGCAAUAUUACGUCCU ? Its self-splicing fitness (ln) was -1.35

So, CACGAGCAAUAUUACGCGAC ? Its self-splicing fitness (ln) was -2.76

So, UGCGAGCAAUAUUACGAAGC ? Its self-splicing fitness (ln) was -2.3

So, CAUCAGCAAUAUUACGUGCC ? Its self-splicing fitness (ln) was -2.47
